Assay: Estimated solubility (buffer pH 7.4)
Assay type: ADME
Details: read-out: S
Param threshold (10 µg/mL) applies to solubility; output yes (1) when value >= threshold, no (0) when value < threshold.

Query :: State whether the measured solubility reaches 10 µg/mL, counting equality as reaching it, for CC(C)[C@H](NC(=O)N(C)Cc1ccccn1)C(=O)N[C@@H](Cc1ccccc1)[C@H](O)[C@@H](O)[C@H](Cc1ccccc1)NC(=O)[C@H](NC(=O)N(C)Cc1nccs1)C(C)C
Result :: yes (1)

Query :: State whether the measured solubility reaches 10 µg/mL, counting equality as reaching it, for CC(C)[C@H](NC(=O)N(C)CCc1ccccn1)C(=O)N[C@@H](Cc1ccccc1)[C@H](O)[C@H](O)[C@H](Cc1ccccc1)NC(=O)[C@H](NC(=O)N(C)CCc1ccccn1)C(C)C
Result :: yes (1)

Query :: Check this molecule for solubility at or above 10 µg/mL: CC(C)[C@H](NS(=O)(=O)N(C)Cc1ccccn1)C(=O)N[C@@H](Cc1ccccc1)C(O)[C@H](Cc1ccccc1)NC(=O)[C@H](NS(=O)(=O)N(C)Cc1ccccn1)C(C)C (stereo not given in full)
Result :: yes (1)

Query :: Assess whether reported solubility for CC(C)[C@H](NS(=O)(=O)N(C)Cc1ccccn1)C(=O)N[C@@H](Cc1ccccc1)[C@@H](O)[C@@H](O)[C@H](Cc1ccccc1)NC(=O)[C@H](NS(=O)(=O)N(C)Cc1ccccn1)C(C)C sits at 10 µg/mL or higher.
Result :: yes (1)

Query :: Does solubility meet or surpass 10 µg/mL for CC(C)[C@H](NC(=O)N(C)Cc1nc2ccccc2[nH]1)C(=O)N[C@@H](Cc1ccccc1)[C@@H](O)[C@H](O)[C@H](Cc1ccccc1)NC(=O)[C@H](NC(=O)N(C)Cc1nc2ccccc2[nH]1)C(C)C ?
Result :: no (0)

----------
Answer each item with its documented IC50.
Molecular target: Human immunodeficiency virus type 1 protease (Human immunodeficiency virus 1, UniProt Q72874)
Test: Inhibition of purified recombinant HIV-1 protease in a fluorogenic assay

Query :: Consider the compound CC(C)[C@H](NC(=O)N(C)Cc1cscn1)C(=O)N[C@@H](Cc1ccccc1)[C@@H](O)[C@H](O)[C@H](Cc1ccccc1)NC(=O)[C@H](NC(=O)N(C)Cc1cscn1)C(C)C and give its measured IC50.
Result :: < 1 nM

Query :: Endpoint output: IC50 of CC(C)[C@H](NC(=O)OCc1cccnc1)C(=O)N[C@@H](Cc1ccccc1)[C@@H](O)[C@@H](O)[C@H](Cc1ccccc1)NC(=O)[C@H](NC(=O)OCc1cccnc1)C(C)C . Value?
Result :: < 1 nM

Query :: What does the record list as IC50 for CC(C)[C@H](NC(=O)N1CCN(C)CC1)C(=O)N[C@@H](Cc1ccccc1)[C@@H](O)[C@H](Cc1ccccc1)NC(=O)[C@H](NC(=O)OCc1ccccc1)C(C)C ?
Result :: 28 nM

Query :: What value of IC50 has been reported for the following compound? CC(C)[C@H](NC(=O)OCc1cccnc1)C(=O)N[C@@H](Cc1ccccc1)[C@@H](O)[C@H](Cc1ccccc1)NC(=O)[C@H](NC(=O)OCc1ccccc1)C(C)C
Result :: 4 nM

Query :: Using the record for CC(C)[C@H](NC(=O)OCC1CCCN(C)C1)C(=O)N[C@@H](Cc1ccccc1)[C@@H](O)[C@H](Cc1ccccc1)NC(=O)[C@H](NC(=O)OCc1ccccc1)C(C)C (some centres not stated) , report its IC50.
Result :: 13 nM

Query :: What does the record list as IC50 for CC(C)[C@H](NC(=O)OCc1cccnc1)C(=O)N[C@@H](Cc1ccccc1)C(O)[C@H](Cc1ccccc1)NC(=O)[C@H](NC(=O)OCc1cccnc1)C(C)C (some centres not stated) ?
Result :: 6.8 nM

Query :: Sample CC(C)[C@H](NC(=O)N(C)Cc1cccnc1)C(=O)N[C@@H](Cc1ccccc1)[C@@H](O)[C@H](O)[C@H](Cc1ccccc1)NC(=O)[C@H](NC(=O)N(C)Cc1cccnc1)C(C)C — what was its IC50?
Result :: < 1 nM

Query :: Data request, read-out IC50, for CC(C)[C@H](NC(=O)N(C)Cc1cscn1)C(=O)N[C@@H](Cc1ccccc1)[C@H](O)[C@H](O)[C@H](Cc1ccccc1)NC(=O)[C@H](NC(=O)N(C)Cc1cscn1)C(C)C
Result :: < 1 nM

Query :: Consider the compound shown here: CC(C)[C@H](NC(=O)N(C)CCc1ccccn1)C(=O)N[C@@H](Cc1ccccc1)[C@H](O)[C@H](O)[C@H](Cc1ccccc1)NC(=O)[C@H](NC(=O)N(C)CCc1ccccn1)C(C)C What is its recorded IC50?
Result :: 31 nM

Query :: Would you kindly share the measured IC50 for CC(C)[C@H](NC(=O)OCc1ccncc1)C(=O)N[C@@H](Cc1ccccc1)[C@@H](O)[C@H](Cc1ccccc1)NC(=O)[C@H](NC(=O)OCc1ccccc1)C(C)C ?
Result :: 7 nM

Query :: Can you share its IC50? I mean this compound: CC(C)[C@H](NS(=O)(=O)N(C)Cc1ccccn1)C(=O)N[C@@H](Cc1ccccc1)[C@H](O)[C@H](O)[C@H](Cc1ccccc1)NC(=O)[C@H](NS(=O)(=O)N(C)Cc1ccccn1)C(C)C
Result :: 38 nM

Query :: Please report the recorded IC50 for CC(C)[C@H](NC(=O)c1ccc2ccccc2n1)C(=O)N[C@@H](Cc1ccccc1)C(O)[C@H](Cc1ccccc1)NC(=O)[C@H](NC(=O)c1ccc2ccccc2n1)C(C)C (some centres not stated) .
Result :: 1.6 nM

Query :: What value of measured IC50 is listed for CC(C)[C@H](NC(=O)N(C)Cc1cccnc1)C(=O)N[C@@H](Cc1ccccc1)[C@H](O)[C@H](O)[C@H](Cc1ccccc1)NC(=O)[C@H](NC(=O)N(C)Cc1cccnc1)C(C)C ?
Result :: < 1 nM

Query :: What value of IC50 has been reported for the following compound? CC(C)[C@H](NC(=O)OCCN1CCOCC1)C(=O)N[C@@H](Cc1ccccc1)[C@@H](O)[C@H](Cc1ccccc1)NC(=O)[C@H](NC(=O)OCc1ccccc1)C(C)C
Result :: 9 nM

Query :: Could you tell me which IC50 is on file for CC(C)[C@H](NC(=O)N(C)Cc1cscn1)C(=O)N[C@@H](Cc1ccccc1)[C@@H](O)[C@@H](O)[C@H](Cc1ccccc1)NC(=O)[C@H](NC(=O)N(C)Cc1cscn1)C(C)C ?
Result :: < 1 nM

Query :: Suppose we examine the compound CC(C)[C@H](NC(=O)N(C)Cc1nc2ccccc2[nH]1)C(=O)N[C@@H](Cc1ccccc1)[C@H](O)[C@H](O)[C@H](Cc1ccccc1)NC(=O)[C@H](NC(=O)N(C)Cc1nc2ccccc2[nH]1)C(C)C ; what IC50 value has been reported?
Result :: < 1 nM

Query :: Give its IC50 value. Item: CC(C)[C@H](NC(=O)N(C)Cc1nccs1)C(=O)N[C@@H](Cc1ccccc1)[C@@H](O)[C@@H](O)[C@H](Cc1ccccc1)NC(=O)[C@H](NC(=O)N(C)Cc1nccs1)C(C)C
Result :: 1 nM

Query :: Name the recorded IC50 for CC(C)[C@H](NC(=O)N(C)Cc1ccccn1)C(=O)N[C@@H](Cc1ccccc1)C(O)[C@H](Cc1ccccc1)NC(=O)[C@H](NC(=O)N(C)Cc1ccccn1)C(C)C (some centres not stated) .
Result :: 43 nM

Query :: Item CC(C)[C@H](NC(=O)OCc1ccccc1)C(=O)N[C@@H](Cc1ccccc1)[C@@H](O)[C@H](O)[C@H](Cc1ccccc1)NC(=O)[C@H](NC(=O)OCc1ccccc1)C(C)C has what recorded IC50?
Result :: < 1 nM

Query :: What value of measured IC50 is listed for CC(C)[C@H](NC(=O)CN1CCOCC1)C(=O)N[C@@H](Cc1ccccc1)[C@@H](O)[C@@H](O)[C@H](Cc1ccccc1)NC(=O)[C@H](NC(=O)CN1CCOCC1)C(C)C ?
Result :: 7.5 nM

Query :: May I ask what IC50 has been recorded for CC(C)[C@H](NC(=O)c1cc2ccccc2[nH]1)C(=O)N[C@@H](Cc1ccccc1)C(O)[C@H](Cc1ccccc1)NC(=O)[C@H](NC(=O)c1cc2ccccc2[nH]1)C(C)C (some centres not stated) ?
Result :: 1.2 nM

Query :: Requested read-out: IC50. Entry: CC(C)[C@H](NC(=O)CCc1cccnc1)C(=O)N[C@@H](Cc1ccccc1)C(O)[C@H](Cc1ccccc1)NC(=O)[C@H](NC(=O)CCc1cccnc1)C(C)C (some centres not stated)
Result :: 22 nM
